molecular target: T1, recombinant human NRP-1 (human, UniProt O14786 22-856, limits assumed); assay: blocking ELISA: human NRP-1 coated, VEGFA added with IgG1 antibody; competitor VEGFA
T1 construct: also called biotinylated human NRP-1
T1 sequence (O14786 22-856 V179A limits assumed): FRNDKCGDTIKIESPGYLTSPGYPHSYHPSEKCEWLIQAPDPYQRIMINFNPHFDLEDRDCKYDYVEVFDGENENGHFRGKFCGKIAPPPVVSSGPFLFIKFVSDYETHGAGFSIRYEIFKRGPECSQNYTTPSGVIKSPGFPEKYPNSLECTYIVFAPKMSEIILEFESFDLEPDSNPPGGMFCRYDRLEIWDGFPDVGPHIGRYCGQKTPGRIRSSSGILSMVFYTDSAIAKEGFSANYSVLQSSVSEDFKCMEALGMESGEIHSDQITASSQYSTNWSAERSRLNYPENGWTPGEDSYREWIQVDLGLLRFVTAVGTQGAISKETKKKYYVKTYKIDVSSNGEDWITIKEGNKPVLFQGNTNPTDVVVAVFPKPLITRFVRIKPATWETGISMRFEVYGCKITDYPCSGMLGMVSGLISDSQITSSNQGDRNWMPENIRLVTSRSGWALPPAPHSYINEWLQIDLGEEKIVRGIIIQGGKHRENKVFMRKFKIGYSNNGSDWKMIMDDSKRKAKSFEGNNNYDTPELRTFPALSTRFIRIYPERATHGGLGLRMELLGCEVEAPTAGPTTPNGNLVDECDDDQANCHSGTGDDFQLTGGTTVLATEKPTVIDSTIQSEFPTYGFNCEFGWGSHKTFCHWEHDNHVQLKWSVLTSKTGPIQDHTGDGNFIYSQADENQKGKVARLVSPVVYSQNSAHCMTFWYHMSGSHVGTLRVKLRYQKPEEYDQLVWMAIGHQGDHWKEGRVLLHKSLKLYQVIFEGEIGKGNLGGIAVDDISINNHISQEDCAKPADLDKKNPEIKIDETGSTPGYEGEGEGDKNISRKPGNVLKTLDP
observation type: pIC50
Scale explanation: pIC50 corresponds to minus log10 of a concentration expressed in moles per litre.

Field: example entries. Status: answers known.
[[record]]
binder = "MAB12 (antibody, V domains shown) VH: EVQLLESGGGLVQPGGSLRLSCAASGFTFSSVAMVWVRQAPGKGLEWVSAISGSGGATYYADSVEGRFTISRDNSKNTLYLQMNSLRAEDTAVYYCAKDPGYDSSRYYYSNYGMDVWGQGTTVTVSS VL: DIQMTQSPSSLSASVGDRVTITCRASQSISSYLNWYQQKPGKAPKLLIYGASSLQSGVPSRFSGSGSGTDFTLTISSLQPEDFATYYCQQTYSLYTFGGGTKVEIK"
reported_result = 8.22

[[record]]
binder = "MAB7 (antibody, V domains shown) VH: EVQLVESGGGLVQPGGSLRLSCAASGFTFSSYWMEWVRQAPGKGLEWVARIKRDGSEKYYVDSVKGRFTISRDNAKNSLYLQMNSLRAEDTAVYYCARDQGYKTPTDFDLWGRGTLVTVSS VL: DIQMTQSPSSLSASVGDRVTITCQASQDITNYLNWYQQKPGKAPKLLIYDASNLETGVPSRFSGSGSGTDFTFTISSLQPEDIATYYCQQSDVLPITFGGGTKVEIK"
reported_result = 8.16

[[record]]
binder = "MAB6 (antibody, V domains shown) VH: QVQLVQSGAKVKKPGASVKVSCKASGYTFTSYYMHWVRQVPGQGLEWMGIINPQGGDTSYAQKFQGRVTMTRDTSTSTVYMELSSLRSEDTAVYYCARDRGMYYASGFNPWGQGTLVTVSS VL: EIVMTQSPGTLSLSPGERATLSCRASQSVSSSYLAWYQQKPGQAPRLLIYGASNRATGIPDRFSGSGSGTDFTLTISRLEPEDFAVYYCQQLSSFPITFGGGTKVEIK"
reported_result = 8.13


pIC50 lookup needed for MAB11 (antibody, V domains shown) VH: EVQLLESGGGLVQPGGSLRLSCAASGFTFSSVAMVWVRQAPGKGLEWVSAISGSGGATYYADSVEGRFTISRDNSKNTLYLQMSSLRAEDTAVYYCAKDPGYDSSRYYYSNYGMDVWGQGTTVTVSS VL: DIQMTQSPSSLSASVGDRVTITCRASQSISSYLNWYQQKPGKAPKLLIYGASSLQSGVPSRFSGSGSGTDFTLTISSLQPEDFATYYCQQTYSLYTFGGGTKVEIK , thanks. 8.23

The reported numbers originate from patent US20190119389A1.
